- Test system: Plasmodium falciparum
- ASSAY_TEXT: GSK_TCMDC: Inhibition of Plasmodium falciparum Dd2 in whole red blood cells, using parasite LDH activity as an index of growth. Test compounds present at 2uM
- Format: functional
MEASURE_NAME: Inhibition

COMPOUND	Inhibition
O=c1cc(NCCCNCc2cc(F)cc(C(F)(F)F)c2)[nH]c2ccccc12	15%

## Task Given the entry Oc1c(Cl)cc(Nc2nccc(Nc3ccc(Oc4ccccc4)cc3)n2)cc1Cl , report its measured Inhibition.
## Result 26%

## Task Given the entry CN1CCCC1CCNC(=O)[C@H](CC1CCCCC1)NC(=O)c1ccc(O)c(-c2ccc(Cl)c(Cl)c2)c1 (stereo partly drawn) , report its measured Inhibition.
## Result 35%
